T ½ listing for selected binders.
# target desc: T1, human 2Ig-B7H3 (B7H3-2Ig-His) (human, UniProt Q5ZPR3 29-466)
# T1 construct: Recombinant His-tagged protein immobilised on a CM5 chip; also called 21g-B7H3; B7H3-21g-His; not shown: His tag
# T1 sequence: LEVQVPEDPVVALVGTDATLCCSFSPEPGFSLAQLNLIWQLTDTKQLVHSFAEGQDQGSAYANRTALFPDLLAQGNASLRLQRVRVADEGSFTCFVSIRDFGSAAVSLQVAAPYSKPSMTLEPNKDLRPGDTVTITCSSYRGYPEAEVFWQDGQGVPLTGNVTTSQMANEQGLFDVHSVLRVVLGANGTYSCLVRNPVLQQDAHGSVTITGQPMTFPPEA
# assay explanation: SPR, Biacore T200, 2Ig-B7H3-His on CM5 chip, 1:1 fit
Give the number; h is assumed, so skip it.

binder: 8H9 antibody conjugated with p-SCN-Bn-DOTA, CAR 0.8 (antibody, mouse IgG1, kappa, V domains shown, p-SCN-Bn-DOTA conjugated, CAR 0.8 per antibody; sites not stated, Chelator conjugate, not metal-labelled) VH: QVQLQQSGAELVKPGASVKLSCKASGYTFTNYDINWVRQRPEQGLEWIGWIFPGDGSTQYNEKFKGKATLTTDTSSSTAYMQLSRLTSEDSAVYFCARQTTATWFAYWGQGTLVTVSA VL: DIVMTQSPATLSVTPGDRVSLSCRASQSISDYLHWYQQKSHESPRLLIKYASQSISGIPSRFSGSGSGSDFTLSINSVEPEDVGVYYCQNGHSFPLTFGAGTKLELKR
unit spec: h
T ½: 39.2

Q: Provide measured T ½ value, entry: 8H9 antibody conjugated with p-SCN-Bn-DOTA, CAR 2.6 (antibody, mouse IgG1, kappa, V domains shown, p-SCN-Bn-DOTA conjugated, CAR 2.6 per antibody; sites not stated, Chelator conjugate, not metal-labelled) VH: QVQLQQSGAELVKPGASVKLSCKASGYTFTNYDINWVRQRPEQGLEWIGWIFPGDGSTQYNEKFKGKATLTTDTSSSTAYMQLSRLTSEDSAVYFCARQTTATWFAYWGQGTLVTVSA VL: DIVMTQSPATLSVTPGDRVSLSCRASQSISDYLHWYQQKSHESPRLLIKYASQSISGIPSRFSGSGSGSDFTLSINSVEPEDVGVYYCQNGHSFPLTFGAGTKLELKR
Ans: 14

Q: Retrieve T ½ measured for 8H9 antibody conjugated with p-SCN-Bn-CHX-A″-DTPA, CAR 1.4 (antibody, mouse IgG1, kappa, V domains shown, p-SCN-Bn-CHX-A″-DTPA conjugated, CAR 1.4 per antibody; sites not stated, Chelator conjugate, not metal-labelled) VH: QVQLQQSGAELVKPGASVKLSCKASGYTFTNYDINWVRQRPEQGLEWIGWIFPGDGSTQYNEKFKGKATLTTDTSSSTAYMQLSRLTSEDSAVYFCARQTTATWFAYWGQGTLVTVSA VL: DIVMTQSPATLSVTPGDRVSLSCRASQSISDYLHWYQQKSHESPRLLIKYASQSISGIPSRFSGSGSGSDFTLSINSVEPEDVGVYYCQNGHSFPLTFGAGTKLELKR and print it.
Ans: 3.94

Q: Specify reported T ½ for the binder shown: 8H9 antibody conjugated with p-SCN-Bn-DOTA, CAR 2.4 (antibody, mouse IgG1, kappa, V domains shown, p-SCN-Bn-DOTA conjugated, CAR 2.4 per antibody; sites not stated, Chelator conjugate, not metal-labelled) VH: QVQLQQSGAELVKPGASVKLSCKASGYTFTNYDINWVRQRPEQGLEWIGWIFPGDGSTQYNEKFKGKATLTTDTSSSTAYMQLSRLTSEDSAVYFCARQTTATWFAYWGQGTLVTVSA VL: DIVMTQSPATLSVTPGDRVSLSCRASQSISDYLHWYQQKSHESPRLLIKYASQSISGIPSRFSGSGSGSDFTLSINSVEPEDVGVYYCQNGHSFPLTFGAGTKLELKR
Ans: 41.1

Q: Tell me T ½ reported for 8H9 antibody conjugated with p-SCN-Bn-CHX-A″-DTPA, CAR 0.6 (antibody, mouse IgG1, kappa, V domains shown, p-SCN-Bn-CHX-A″-DTPA conjugated, CAR 0.6 per antibody; sites not stated, Chelator conjugate, not metal-labelled; also called conj-CHX-A″-DTPA (CAR0.6)) VH: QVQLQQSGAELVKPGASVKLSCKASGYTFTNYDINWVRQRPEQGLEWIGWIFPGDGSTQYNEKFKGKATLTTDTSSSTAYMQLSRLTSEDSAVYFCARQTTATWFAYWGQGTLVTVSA VL: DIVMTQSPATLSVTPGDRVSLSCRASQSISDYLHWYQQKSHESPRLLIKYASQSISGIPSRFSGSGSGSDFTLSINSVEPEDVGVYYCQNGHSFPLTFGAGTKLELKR
Ans: 5.72

Q: Give the measured T ½ for 8H9 antibody conjugated with p-SCN-Bn-CHX-A″-DTPA, CAR 6.1 (antibody, mouse IgG1, kappa, V domains shown, p-SCN-Bn-CHX-A″-DTPA conjugated, CAR 6.1 per antibody; sites not stated, Chelator conjugate, not metal-labelled) VH: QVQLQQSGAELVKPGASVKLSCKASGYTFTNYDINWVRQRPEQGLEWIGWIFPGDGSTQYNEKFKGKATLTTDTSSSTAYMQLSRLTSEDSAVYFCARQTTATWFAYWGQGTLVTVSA VL: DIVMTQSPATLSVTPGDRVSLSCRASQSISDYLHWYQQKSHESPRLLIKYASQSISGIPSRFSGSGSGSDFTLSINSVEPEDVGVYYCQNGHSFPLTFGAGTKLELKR
Ans: 0.394

Q: Determine from records and report T ½ for 8H9 antibody conjugated with p-SCN-Bn-DOTA, CAR 11.7 (antibody, mouse IgG1, kappa, V domains shown, p-SCN-Bn-DOTA conjugated, CAR 11.7 per antibody; sites not stated, Chelator conjugate, not metal-labelled) VH: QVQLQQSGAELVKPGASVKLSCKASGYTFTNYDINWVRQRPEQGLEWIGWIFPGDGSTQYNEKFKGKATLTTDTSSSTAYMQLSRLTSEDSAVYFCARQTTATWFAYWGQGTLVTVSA VL: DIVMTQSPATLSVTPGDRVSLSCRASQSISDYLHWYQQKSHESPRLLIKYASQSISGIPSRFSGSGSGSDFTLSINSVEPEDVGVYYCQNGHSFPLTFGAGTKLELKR
Ans: 3.72

Q: Using known records, supply T ½ for 8H9 antibody conjugated with p-SCN-Bn-CHX-A″-DTPA, CAR 3.6 (antibody, mouse IgG1, kappa, V domains shown, p-SCN-Bn-CHX-A″-DTPA conjugated, CAR 3.6 per antibody; sites not stated, Chelator conjugate, not metal-labelled) VH: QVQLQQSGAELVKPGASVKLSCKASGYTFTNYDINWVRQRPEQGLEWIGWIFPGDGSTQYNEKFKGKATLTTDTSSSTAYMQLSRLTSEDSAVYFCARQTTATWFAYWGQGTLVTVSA VL: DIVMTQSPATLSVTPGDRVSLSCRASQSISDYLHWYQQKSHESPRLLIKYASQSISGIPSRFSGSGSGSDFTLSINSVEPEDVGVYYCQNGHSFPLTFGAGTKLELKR
Ans: 1.25

Q: Tell me measured T ½ for 8H9 antibody conjugated with p-SCN-Bn-DOTA, CAR 7.5 (antibody, mouse IgG1, kappa, V domains shown, p-SCN-Bn-DOTA conjugated, CAR 7.5 per antibody; sites not stated, Chelator conjugate, not metal-labelled) VH: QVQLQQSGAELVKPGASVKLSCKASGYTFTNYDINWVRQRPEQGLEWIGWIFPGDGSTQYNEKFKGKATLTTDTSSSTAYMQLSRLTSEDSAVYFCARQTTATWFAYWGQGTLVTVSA VL: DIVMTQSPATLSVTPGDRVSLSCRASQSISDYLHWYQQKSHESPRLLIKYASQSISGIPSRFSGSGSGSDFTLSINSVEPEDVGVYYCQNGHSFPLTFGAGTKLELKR please.
Ans: 6.58
